The measurements presented in this section are drawn from patent USRE36744E.

# Assay method text: Comparative oral versus nasal pharmacokinetics of flurazepam in dogs (plasma, GC assay)
# Type: in vivo, beagle dogs
# Setup conditions: dog, plasma, po, 15 mg, oral, 15 mg flurazepam HCl; mean of four dogs; head marked *; read-out: CMAX PO (MEAN)
Measured attribute: Cmax

compound_smiles=CCN(CC)CCN1C(=O)CN=C(c2ccccc2F)c2cc(Cl)ccc21 measured_attribute=Cmax val="4.97 ng/mL"

====

# Assay method text: Comparative oral versus nasal pharmacokinetics of triazolam in beagle dogs (plasma, GC assay)
# Setup conditions: dog, plasma, po, 1 mg, CMAX PO (MEAN), two 0.5 mg tablets; mean of four dogs; ng/ml
# Protocol: In two comparative studies separated in time by over one week; four healthy male, 2-3 year old beagle dogs received oral and nasal doses of triazolam. They were fasted overnight before each study and food was withheld until the end of the experiment. […] Using a metered dose inhaler, triazolam solution was sprayed into both nostrils of the dogs. The dose administered was determined by weighting the bottle containing the triazolam solution before and after spraying. […]
Measured attribute: Cmax (ng/mL)

compound="Cc1nnc2n1-c1ccc(Cl)cc1C(c1ccccc1Cl)=NC2 [triazolam]" measured_attribute=Cmax val=7
